Cited source for all entries: patent US20190315711A1

Test: Caco-2 cell permeability assay (A-B and B-A)
Assay type: in vitro ADME
Conditions: human, A-B direction
property.name: Papp A→B at 60 min, 10 μM

compound="CN(C(=O)[C@@H]1[C@@H](Cc2ccnc(N)c2)C(=O)N1C(=O)N[C@@H](C1CCCCC1)C(F)(F)F)c1cccc(F)c1 [Compound 22]" property_name="Papp A→B at 60 min, 10 μM" obs_value="11 to 30 ×10⁻⁶ cm/s"
compound="CN(C(=O)[C@@H]1[C@@H](Cc2ccnc(N)c2)C(=O)N1C(=O)N[C@@H](C1CCCCC1)C1CC1)c1ccncc1 [Compound 52]" property_name="Papp A→B at 60 min, 10 μM" obs_value="11 to 30 ×10⁻⁶ cm/s"
compound="CC[C@@H](NC(=O)N1C(=O)[C@H](Cc2ccnc(N)c2)[C@H]1C(=O)N(C)c1ccncc1)c1ccc(Cl)cc1 [Compound 89]" property_name="Papp A→B at 60 min, 10 μM" obs_value="≤ 10 ×10⁻⁶ cm/s"
compound="C[C@@H](NC(=O)N1C(=O)[C@H](Cc2ccnc(N)c2)[C@H]1C(=O)N(C)c1ccccc1)C1CCCCC1 [Compound 49]" property_name="Papp A→B at 60 min, 10 μM" obs_value="> 50 ×10⁻⁶ cm/s"
compound="CC[C@@H](NC(=O)N1C(=O)[C@H](Cc2cc(C)nc(N)c2)[C@H]1C(=O)N(C)c1ccccc1)C1CCCCC1 [Compound 91]" property_name="Papp A→B at 60 min, 10 μM" obs_value="11 to 30 ×10⁻⁶ cm/s"
compound="CN(C(=O)[C@@H]1[C@@H](Cc2ccnc(N)c2)C(=O)N1C(=O)N[C@@H](C1CCCCC1)C(F)(F)F)c1cccnc1 [Compound 17]" property_name="Papp A→B at 60 min, 10 μM" obs_value="11 to 30 ×10⁻⁶ cm/s"
